- tested target: Bile acid receptor (Homo sapiens) (UniProt Q96RI1)
- protocol description: Increase in human FXR-mediated transient transcription of luciferase reporter gene transfected in african green monkey CV1 cells relative to GW-4064
- Type: cell-based
- Set-up: concentration or dose not given beside the values
- stated conditions: CV-1
measurement label: Activity (%)

>  <structure smiles string>
CC(C)c1onc(-c2c(Cl)cccc2Cl)c1COc1ccc2c(Nc3cccc(C(=O)O)c3)cccc2c1

>  <assay value>
57

$$$$
>  <structure smiles string>
CC(C)c1onc(-c2c(Cl)cccc2Cl)c1COc1ccc2cc(-c3ccc(C(=O)O)cc3)sc2c1

>  <assay value>
79

$$$$
>  <structure smiles string>
CC(C)c1onc(-c2c(Cl)cccc2Cl)c1COc1ccc2cc(-c3ccc(C(=O)O)cc3)ccc2c1

>  <assay value>
170

$$$$
>  <structure smiles string>
CC(C)c1onc(-c2c(Cl)cccc2Cl)c1COc1ccc2sc(-c3cccc(C(=O)O)c3)cc2c1

>  <assay value>
87

$$$$
>  <structure smiles string>
CC(C)c1onc(-c2c(Cl)cccc2Cl)c1CCc1nc2cc(-c3cccc(C(=O)O)c3)ccc2o1

>  <assay value>
75

$$$$
>  <structure smiles string>
CC(C)c1onc(-c2c(Cl)cccc2Cl)c1COc1ccc2c(ccn2Cc2cccc(C(=O)O)c2)c1

>  <assay value>
84

$$$$
>  <structure smiles string>
CC(C)c1onc(-c2c(Cl)cccc2Cl)c1COc1ccc2nc(-c3cccc(C(=O)O)c3)sc2c1

>  <assay value>
86

$$$$

====

- protocol description: Terminal half life in rat at 1 mg/kg, iv
- Assay type: ADME, organism-based
- Design: dose 1 mg/kg, route intravenous
- stated conditions: in vivo, read-out: beta t1/2
measurement label: half-life (min)

>  <structure smiles string>
CC(C)c1onc(-c2c(Cl)cccc2Cl)c1COc1ccc2c(c1)ncn2Cc1cccc(C(=O)O)c1

>  <u>
min

>  <assay value>
31

$$$$
>  <structure smiles string>
CC(C)c1onc(-c2c(Cl)cccc2Cl)c1COc1ccc2sc(-c3cccc(C(=O)O)c3)cc2c1

>  <u>
min

>  <assay value>
15

$$$$
>  <structure smiles string>
CC(C)c1onc(-c2c(Cl)cccc2Cl)c1COc1ccc2c(ccn2Cc2cccc(C(=O)O)c2)c1

>  <u>
min

>  <assay value>
45

$$$$

====

# EC50 listing for each entry below
- tested target: Bile acid receptor (Homo sapiens, UniProt Q96RI1)
- Sequence (Q96RI1 whole entry): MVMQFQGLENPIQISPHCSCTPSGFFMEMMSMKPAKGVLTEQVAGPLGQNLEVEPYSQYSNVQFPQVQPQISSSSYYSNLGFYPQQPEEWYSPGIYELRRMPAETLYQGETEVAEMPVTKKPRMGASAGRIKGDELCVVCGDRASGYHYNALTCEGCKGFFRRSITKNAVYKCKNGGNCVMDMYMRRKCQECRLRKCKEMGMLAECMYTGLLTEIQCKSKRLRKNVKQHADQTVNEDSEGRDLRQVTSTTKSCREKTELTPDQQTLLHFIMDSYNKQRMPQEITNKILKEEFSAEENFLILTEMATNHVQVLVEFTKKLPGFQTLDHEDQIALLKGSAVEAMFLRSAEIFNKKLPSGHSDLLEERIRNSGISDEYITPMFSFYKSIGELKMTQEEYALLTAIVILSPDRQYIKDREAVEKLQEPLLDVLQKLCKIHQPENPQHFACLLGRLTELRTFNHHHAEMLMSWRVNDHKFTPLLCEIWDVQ
- protocol description: Increase in human FXR-mediated transient transcription of luciferase reporter gene transfected in african green monkey CV1 cells
- Assay type: cell-based, CV-1
measurement label: EC50 (nM)

>  <structure smiles string>
CC(C)c1onc(-c2c(Cl)cccc2Cl)c1COc1ccc2cc(-c3cccc(C(=O)O)c3)ccc2c1

>  <assay value>
130

$$$$
>  <structure smiles string>
CC(C)c1onc(-c2c(Cl)cccc2Cl)c1COc1ccc2c(c1)CN(c1cccc(C(=O)O)c1)C2=O

>  <assay value>
1100

$$$$
>  <structure smiles string>
CC(C)c1onc(-c2c(Cl)cccc2Cl)c1COc1ccc2c(ccn2S(=O)(=O)c2cccc(C(=O)O)c2)c1

>  <assay value>
1300

$$$$
>  <structure smiles string>
CC(C)c1onc(-c2c(Cl)cccc2Cl)c1COc1ccc2c(c1)CCN(c1cccc(C(=O)O)c1)C2=O

>  <assay value>
8300

$$$$
>  <structure smiles string>
CC(C)c1onc(-c2c(Cl)cccc2Cl)c1COc1ccc2c(ccn2Cc2cccc(C(=O)O)c2)c1

>  <assay value>
210

$$$$
>  <structure smiles string>
CC(C)c1onc(-c2c(Cl)cccc2Cl)c1COc1ccc2c(c1)ncn2Cc1cccc(C(=O)O)c1

>  <assay value>
5000

$$$$
>  <structure smiles string>
CC(C)c1onc(-c2c(Cl)cccc2Cl)c1COc1ccc2c(ccn2C(=O)c2cccc(C(=O)O)c2)c1

>  <assay value>
860

$$$$
>  <structure smiles string>
CC(C)c1onc(-c2c(Cl)cccc2Cl)c1COc1ccc2cc(-c3ccc(C(=O)O)cc3)sc2c1

>  <assay value>
220

$$$$
